assay: TLR3 IRF3 reporter activation blockers – cell-based, poly I:C stimulus, luciferase, 10K MLSCN set, primary screen (AID 602277); conditions: HEK293-TLR3 RL24 IRF3 luciferase reporter, at 10 µM, active compounds read high
Classification field: 1 (yes) = inhibition at or over 10%; 0 (no) = inhibition under 10%.

Previously resolved entries follow.
- COMPOUND: "CN(C)c1nc(SCCOC(=O)c2ccccc2)nc(N(C)C)n1"
  GROUP: "1 (yes)"
- COMPOUND: "COCCn1c(COc2ccc(Cl)cc2)nnc1SCC(N)=O"
  GROUP: "1 (yes)"
- COMPOUND: "CC1CCCCC1NC(=O)C1CCN(C(=O)NC2CCCCC2)CC1 (stereo not given)"
  GROUP: "1 (yes)"
- COMPOUND: "Cn1c(=O)c(=O)n(C)c2cc(S(=O)(=O)CCC(=O)N3CCOCC3)ccc21"
  GROUP: "0 (no)"

Now take the following compound into account.
Is reported inhibition greater than or equal to 10% here: CC(=O)Nc1ccc(S(=O)(=O)CCC#N)cc1
1 (yes)
